TEST_NAME: protein stability index of a GFP-peptide fusion (GPS, HEK-293T) (PSI 1-6); higher = more stable;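 note: 24-mer peptide tiles fused after GFP, lentivirally expressed, FACS-sorted into six equal bins by GFP/DsRed ratio, decoded by Illumina sequencing, PSI is the read-weighted mean bin number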
CONDITION_SET: treatment: MLN4924 1 uM, 8 h; c terminus: a fixed tail appended
Outcome: true for protein stability index of at least 4; false for anything lower.

# BIOPOLYMER_SEQUENCE, CLASS_NAME
data = [
    ("KSITSAMNELQHDLDVVSDALAKV [TPH1]", "true"),
    ("IEELCQKREELCRQIQEEEDEKQR [SSNA1]", "true"),
    ("LVQDLVDSLKFAVLMWLLTYVGAL [RTN1]", "false"),
    ("ILSACSPYFRAMFTGELAESRQTE [KLHL20]", "false"),
    ("GGTLFSLEEGSSFWNQGLTWKVLF [CLCN6]", "false"),
    ("THLPKADIFALALTVVCAAGAEPL [WEE1]", "false"),
    ("VEVISDTLSKPSPMPVSQECFETL [CHGA]", "false"),
    ("SLQKLSTKLSAQSAQYSQQLQAAR [FCHSD1]", "false"),
    ("VFDALESDHEMREEEKLKAEEIRI [KCNK9]", "true"),
    ("PPPARGRGAPPPPPSRAPTAAPPP [WASL]", "true"),
    ("GGAAWSIGAAPFSGRRNWCSYVVT [EMID1]", "false"),
    ("GNEKSIIDCKFNAESQGCNHEEDA [LOXL2]", "true"),
    ("IDREVDLMMRGVKHHNLEGLRKRI [IQUB]", "false"),
]

Source of measurements: the supplement of paper PMC10567573
